Source: ChEMBL document CHEMBL5230082

testedSystem: Human immunodeficiency virus type 1 protease (Human immunodeficiency virus 1)
property: pIC50
Note: pIC50 values are expressed as the negative base-10 logarithm of concentration in M.

Q. Value lookup for pIC50; key = `C[C@H](CCC(=O)N[C@H](CC(=O)OCc1ccccc1)C(=O)O)[C@H]1CC[C@H]2[C@@H]3[C@H](O)C[C@@H]4C[C@H](O)CC[C@]4(C)[C@H]3C[C@H](O)[C@]12C`
A. 3.90

---

assaySummary: Anticancer activity against human U-87 MG cells assessed as growth inhibition
Type: functional, U-87MG ATCC
property: GI50 (nM)
# unit: nM | format: bare number

Use these answered entries as a reference point.
CC(C)[C@H](NC(=O)CC[C@@H](C)[C@H]1CC[C@H]2[C@@H]3[C@H](O)C[C@@H]4C[C@H](O)CC[C@]4(C)[C@H]3C[C@H](O)[C@]12C)C(=O)Nc1ccncc1 :: 2460
Cc1c(NC(=O)[C@H](C)NC(=O)CC[C@@H](C)[C@H]2CC[C@H]3[C@@H]4[C@H](O)C[C@@H]5C[C@H](O)CC[C@]5(C)[C@H]4C[C@H](O)[C@]23C)c(=O)n(-c2ccccc2)n1C :: 2490

Q. Given `COc1cccc2c1C(=O)c1c(O)c3c(c(O)c1C2=O)C[C@@](O)(C(=O)CO)C[C@@H]3O[C@H]1C[C@H](N)[C@H](O)[C@H](C)O1` , state its recorded GI50.
A. 2600

Q. What GI50 value was documented for this compound, `Cc1ccc(NC(=O)[C@H](C)NC(=O)CC[C@@H](C)[C@H]2CC[C@H]3[C@@H]4[C@H](O)C[C@@H]5C[C@H](O)CC[C@]5(C)[C@H]4C[C@H](O)[C@]23C)cc1` ?
A. 1620
